# experimental system: ATM kinase (Homo sapiens)
# Construct: endogenous in cells
# Sequence (Q13315 whole entry): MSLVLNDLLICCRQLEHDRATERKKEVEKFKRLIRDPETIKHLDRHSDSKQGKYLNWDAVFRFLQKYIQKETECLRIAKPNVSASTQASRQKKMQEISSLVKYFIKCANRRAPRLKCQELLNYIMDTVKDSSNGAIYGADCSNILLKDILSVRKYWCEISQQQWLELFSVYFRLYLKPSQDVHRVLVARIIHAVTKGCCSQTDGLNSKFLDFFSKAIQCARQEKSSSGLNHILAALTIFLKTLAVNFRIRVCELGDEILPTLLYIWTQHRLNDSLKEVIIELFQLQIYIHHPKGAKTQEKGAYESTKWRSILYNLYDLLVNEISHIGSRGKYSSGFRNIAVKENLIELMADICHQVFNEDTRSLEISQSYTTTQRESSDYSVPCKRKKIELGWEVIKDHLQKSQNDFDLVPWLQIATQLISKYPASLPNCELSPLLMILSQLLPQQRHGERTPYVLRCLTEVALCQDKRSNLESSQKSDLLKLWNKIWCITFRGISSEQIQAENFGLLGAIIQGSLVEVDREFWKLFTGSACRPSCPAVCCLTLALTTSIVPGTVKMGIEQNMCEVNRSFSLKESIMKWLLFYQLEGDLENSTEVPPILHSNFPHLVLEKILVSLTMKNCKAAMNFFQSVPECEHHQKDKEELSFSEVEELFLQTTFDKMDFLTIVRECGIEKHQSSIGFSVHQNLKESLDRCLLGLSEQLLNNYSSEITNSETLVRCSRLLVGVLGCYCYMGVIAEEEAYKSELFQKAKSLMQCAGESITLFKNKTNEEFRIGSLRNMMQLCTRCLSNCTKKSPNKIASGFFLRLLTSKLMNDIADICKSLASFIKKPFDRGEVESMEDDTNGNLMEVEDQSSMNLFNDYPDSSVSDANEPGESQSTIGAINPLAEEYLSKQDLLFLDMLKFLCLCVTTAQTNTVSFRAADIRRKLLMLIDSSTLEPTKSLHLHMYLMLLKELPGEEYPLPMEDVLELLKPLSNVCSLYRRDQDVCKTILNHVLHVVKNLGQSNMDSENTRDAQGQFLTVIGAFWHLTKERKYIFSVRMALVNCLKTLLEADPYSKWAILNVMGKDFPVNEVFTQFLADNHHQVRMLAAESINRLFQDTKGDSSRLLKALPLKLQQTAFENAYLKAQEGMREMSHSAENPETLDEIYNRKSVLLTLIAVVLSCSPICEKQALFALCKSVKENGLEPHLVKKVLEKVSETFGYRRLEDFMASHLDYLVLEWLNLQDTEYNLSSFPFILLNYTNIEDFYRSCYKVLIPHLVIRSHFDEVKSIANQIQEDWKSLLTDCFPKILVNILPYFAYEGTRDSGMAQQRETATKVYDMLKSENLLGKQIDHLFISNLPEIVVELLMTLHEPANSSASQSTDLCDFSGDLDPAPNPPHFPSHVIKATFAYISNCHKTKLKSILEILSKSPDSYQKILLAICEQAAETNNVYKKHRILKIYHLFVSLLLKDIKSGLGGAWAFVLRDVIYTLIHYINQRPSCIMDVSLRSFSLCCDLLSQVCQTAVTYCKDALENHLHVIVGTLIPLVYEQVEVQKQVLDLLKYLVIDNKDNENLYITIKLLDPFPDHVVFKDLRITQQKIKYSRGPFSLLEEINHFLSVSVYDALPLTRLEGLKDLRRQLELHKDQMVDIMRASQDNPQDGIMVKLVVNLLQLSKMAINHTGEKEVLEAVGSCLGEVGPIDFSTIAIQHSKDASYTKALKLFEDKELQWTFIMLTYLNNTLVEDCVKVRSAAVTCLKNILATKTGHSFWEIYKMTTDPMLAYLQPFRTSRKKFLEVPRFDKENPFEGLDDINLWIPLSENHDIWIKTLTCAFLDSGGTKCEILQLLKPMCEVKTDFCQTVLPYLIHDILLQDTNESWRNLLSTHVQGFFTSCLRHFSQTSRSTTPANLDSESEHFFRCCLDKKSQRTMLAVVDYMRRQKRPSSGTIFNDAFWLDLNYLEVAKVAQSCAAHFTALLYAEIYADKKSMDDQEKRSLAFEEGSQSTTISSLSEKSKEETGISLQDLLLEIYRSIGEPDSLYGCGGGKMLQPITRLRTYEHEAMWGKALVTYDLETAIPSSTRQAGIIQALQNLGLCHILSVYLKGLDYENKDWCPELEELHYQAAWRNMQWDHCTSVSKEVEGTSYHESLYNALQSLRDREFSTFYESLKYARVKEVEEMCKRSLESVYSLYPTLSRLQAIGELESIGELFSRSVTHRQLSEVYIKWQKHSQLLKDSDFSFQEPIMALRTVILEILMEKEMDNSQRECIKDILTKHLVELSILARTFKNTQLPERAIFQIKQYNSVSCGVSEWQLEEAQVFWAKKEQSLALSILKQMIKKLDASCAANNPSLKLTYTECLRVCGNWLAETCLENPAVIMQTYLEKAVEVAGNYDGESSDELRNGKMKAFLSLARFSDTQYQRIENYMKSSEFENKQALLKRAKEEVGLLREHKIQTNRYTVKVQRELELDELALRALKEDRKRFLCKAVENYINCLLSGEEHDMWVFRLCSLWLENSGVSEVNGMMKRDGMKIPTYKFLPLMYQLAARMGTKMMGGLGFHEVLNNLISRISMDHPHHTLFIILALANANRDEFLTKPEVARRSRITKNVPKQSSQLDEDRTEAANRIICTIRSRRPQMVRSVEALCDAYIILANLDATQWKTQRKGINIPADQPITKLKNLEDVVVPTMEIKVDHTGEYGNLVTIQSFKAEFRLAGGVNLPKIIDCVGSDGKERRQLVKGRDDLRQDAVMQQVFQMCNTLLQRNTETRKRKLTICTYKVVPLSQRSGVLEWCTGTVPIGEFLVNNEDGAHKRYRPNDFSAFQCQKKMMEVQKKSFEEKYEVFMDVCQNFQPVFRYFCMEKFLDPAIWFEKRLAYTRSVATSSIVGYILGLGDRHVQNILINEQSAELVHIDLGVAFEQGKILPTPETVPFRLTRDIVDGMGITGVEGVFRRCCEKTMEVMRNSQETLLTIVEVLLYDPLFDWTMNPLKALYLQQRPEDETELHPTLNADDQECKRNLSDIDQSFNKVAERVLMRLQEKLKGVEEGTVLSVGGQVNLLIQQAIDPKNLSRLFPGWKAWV
# assay procedure: Assay a) ATM cellular potency (pATM Ser1981 in X-ray irradiated HT29 cells)
# applied conditions: HT29 cells, 1 h compound, X-ray ~600 cGy, pATM Ser1981; may be geometric mean of several tests; read-out: Assay a) ATM Cell IC50
# Description: The following assays were used to measure the effects of the compounds of the present invention: a) ATM cellular potency assay; b) PI3K cellular potency assay; c) mTOR cellular potency assay; d) ATR cellular potency assay. During the description of the assays, generally: • i. […] IC50 values were calculated using a smart fitting model in Genedata. […] The rationale of the pATM assay is to identify inhibitors of ATM in cells. […] The fluorescence is read on the arrayscan imaging platform. […]
pIC50: −log10 of the molar value.
quantity: pIC50

• CC(C)n1c(=O)n(C)c2cnc3cc(F)c(-c4ccc(OCCCN(C)C)nc4F)cc3c21 = 8.64
• CC(C)n1c(=O)[nH]c2cnc3cc(F)c(-c4ccc(OCCCN(C)C)nc4)cc3c21 = 8.34
• CC(C)n1c(=O)[nH]c2cnc3cc(F)c(-c4ccc(OCCCN5CCCCC5)nc4)cc3c21 = 8.50
• CC(C)n1c(=O)n(C)c2cnc3cc(F)c(-c4ccc(OCCCN5CCC5)nc4)cc3c21 = 8.80
• CC(C)n1c(=O)n(C)c2cnc3cc(F)c(-c4ccc(OCCCN5CCCCC5)nc4)cc3c21 = 9.10

P = CC(C)n1c(=O)n(C)c2cnc3cc(F)c(-c4ccc(OCCC[N+]5([O-])CCCCC5)nc4)cc3c21 [Metabolite A]
Q = CC(C)n1c(=O)n(C)c2cnc3ccc(-c4ccc(OCCCN5CCC5)nc4)cc3c21
R = CC(C)n1c(=O)n(C)c2cnc3cc(F)c(-c4ccc(OCCCN5CCCCC5)nc4F)cc3c21
Request: Arrange the 3 entries by pIC50 so the values rise. Give me the labels in the order the question wants.
Result: P, R, Q

Recorded values, source patent US10457679B2.
